Entry source: ChEMBL document CHEMBL3988442

target: Chromo domain-containing protein 1 (Saccharomyces cerevisiae (strain ATCC 204508 / S288c) (Baker's yeast)); test: ScCHD-1 Enzyme Inhibition Assay; format: functional; design: scale not given: in the data most compounds retested in dose-response had high values; conditions: 30 µM
The entries below are paired with their reported Percent Effect.
Only the number, expressed in %, is required.

| Molecule | Measurement Type | Numeric Readout |
| --- | --- | --- |
| Cc1cnc(CN(C)C2CCN(Cc3nc4ccccc4n3C)C2)o1 (stereo unspecified) | Percent Effect | -12.5 |
| Cc1cc(S(=O)(=O)N2CCc3ccc(F)cc32)cc(C(=O)O)c1C | Percent Effect | -9.5 |
| CC(C)C(C)NC(=O)Nc1ccccc1CN1CCOCC1 (stereo unspecified) | Percent Effect | -3.52 |
| Cc1cncc(C(=O)N2Cc3ccccc3C3(CCN(C)CC3)C2)c1 | Percent Effect | -3.41 |
| CN(C)CC1(O)CCN(S(=O)(=O)c2ccc(F)c(F)c2)C1 (stereo unspecified) | Percent Effect | -21.7 |

Field: next molecule
Ask: Item `CC(C)c1noc(CCCC(=O)N2CCC(Cc3cccnc3)CC2)n1` has what recorded Percent Effect?
Result: -3.44

---

Target: Tyrosyl-tRNA synthetase, putative (Trypanosoma cruzi (strain CL Brener)) (UniProt Q4DSP6)
Sequence (whole entry): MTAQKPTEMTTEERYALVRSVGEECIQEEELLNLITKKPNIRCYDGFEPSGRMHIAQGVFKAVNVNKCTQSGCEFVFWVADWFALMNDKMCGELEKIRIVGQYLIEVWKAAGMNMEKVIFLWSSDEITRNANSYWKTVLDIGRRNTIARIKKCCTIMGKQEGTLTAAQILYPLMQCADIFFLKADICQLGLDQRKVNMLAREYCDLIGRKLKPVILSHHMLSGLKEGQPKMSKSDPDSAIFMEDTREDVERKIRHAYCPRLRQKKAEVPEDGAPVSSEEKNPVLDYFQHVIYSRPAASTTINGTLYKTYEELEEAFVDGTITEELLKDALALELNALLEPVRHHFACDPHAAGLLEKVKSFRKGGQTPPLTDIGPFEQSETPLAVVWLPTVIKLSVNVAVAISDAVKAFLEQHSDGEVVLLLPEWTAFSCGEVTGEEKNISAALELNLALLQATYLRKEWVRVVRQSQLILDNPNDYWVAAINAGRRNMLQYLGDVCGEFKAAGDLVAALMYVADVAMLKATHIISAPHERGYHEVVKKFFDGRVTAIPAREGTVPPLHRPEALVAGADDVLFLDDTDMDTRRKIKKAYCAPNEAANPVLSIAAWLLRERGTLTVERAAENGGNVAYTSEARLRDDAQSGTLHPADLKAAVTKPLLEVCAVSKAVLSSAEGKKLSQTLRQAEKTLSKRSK
Assay: Trypanosoma cruzi tyrosyl tRNA synthetase (TcYRS) SOP
Type: functional
Design: scale not given: direction of the effect not stated beside the values
Conditions: 30 µM
Entries and their Percent Effect
Numeric answer only, unit % assumed.

| Compound | Measurement Unit | Numeric Readout |
| --- | --- | --- |
| CN(Cc1cn2ccccc2c1C#N)C1CCCN(c2cccnn2)C1 (stereo unspecified) | % | 9.41 |
| CC(C)c1noc(CN2CCN(C(=O)c3ccccc3F)CC2)n1 | % | 18.3 |

Ask: May I ask what Percent Effect has been recorded for `COC(=O)c1cccc(NC(=O)CN2CCN(S(C)(=O)=O)CC2)c1` ?
Result: 16.1

Ask: Please report the recorded Percent Effect for COc1ccc(C2=CCN(C(=O)C3CCCN(C(N)=O)C3)CC2)cc1 (stereo unspecified) .
Result: 18.5

Ask: What does the record list as Percent Effect for CCNC(c1ccc(OC)cc1)c1cccnc1 (stereo unspecified) ?
Result: 5.06

Ask: I have this compound here, `O=C(NCCCO)Nc1cccc(Cl)c1F` , and I need its recorded Percent Effect.
Result: 5.13

---

molecular target: Ubiquitin-activating enzyme e1, putative (Leishmania donovani (strain BPK282A1)) (UniProt E9BSI1); test: Leishmania donovani Ubiquitin Activating Enzyme (LdE1); assay type: functional; parameters: scale not given: direction of the effect not stated beside the values; conditions: 30 µM
Measured potencies and affinities stand elsewhere.
Measurement Type: Percent Effect (%)
Provide the reading as a plain figure in %.

| Molecule | Measurement Unit | Numeric Readout |
| --- | --- | --- |
| Cc1cc(CN2CCOC(CN(C)c3cccnn3)C2)no1 (stereo unspecified) | % | 0 |

Ask: Would you kindly share the measured Percent Effect for `Cc1ccc(C2(CN3CCCC3)CCNCC2)nc1` ?
Result: 8.11

---

Entries and their Percent Effect
target: Chromo domain-containing protein 1 (Saccharomyces cerevisiae (strain ATCC 204508 / S288c) (Baker's yeast)) (UniProt P32657); experiment: ScCHD-1 Enzyme Inhibition Assay; format: functional; parameters: scale not given: in the data most compounds retested in dose-response had high values; settings: 30 µM
Sequence (P32657 whole entry, the tested form may be a part): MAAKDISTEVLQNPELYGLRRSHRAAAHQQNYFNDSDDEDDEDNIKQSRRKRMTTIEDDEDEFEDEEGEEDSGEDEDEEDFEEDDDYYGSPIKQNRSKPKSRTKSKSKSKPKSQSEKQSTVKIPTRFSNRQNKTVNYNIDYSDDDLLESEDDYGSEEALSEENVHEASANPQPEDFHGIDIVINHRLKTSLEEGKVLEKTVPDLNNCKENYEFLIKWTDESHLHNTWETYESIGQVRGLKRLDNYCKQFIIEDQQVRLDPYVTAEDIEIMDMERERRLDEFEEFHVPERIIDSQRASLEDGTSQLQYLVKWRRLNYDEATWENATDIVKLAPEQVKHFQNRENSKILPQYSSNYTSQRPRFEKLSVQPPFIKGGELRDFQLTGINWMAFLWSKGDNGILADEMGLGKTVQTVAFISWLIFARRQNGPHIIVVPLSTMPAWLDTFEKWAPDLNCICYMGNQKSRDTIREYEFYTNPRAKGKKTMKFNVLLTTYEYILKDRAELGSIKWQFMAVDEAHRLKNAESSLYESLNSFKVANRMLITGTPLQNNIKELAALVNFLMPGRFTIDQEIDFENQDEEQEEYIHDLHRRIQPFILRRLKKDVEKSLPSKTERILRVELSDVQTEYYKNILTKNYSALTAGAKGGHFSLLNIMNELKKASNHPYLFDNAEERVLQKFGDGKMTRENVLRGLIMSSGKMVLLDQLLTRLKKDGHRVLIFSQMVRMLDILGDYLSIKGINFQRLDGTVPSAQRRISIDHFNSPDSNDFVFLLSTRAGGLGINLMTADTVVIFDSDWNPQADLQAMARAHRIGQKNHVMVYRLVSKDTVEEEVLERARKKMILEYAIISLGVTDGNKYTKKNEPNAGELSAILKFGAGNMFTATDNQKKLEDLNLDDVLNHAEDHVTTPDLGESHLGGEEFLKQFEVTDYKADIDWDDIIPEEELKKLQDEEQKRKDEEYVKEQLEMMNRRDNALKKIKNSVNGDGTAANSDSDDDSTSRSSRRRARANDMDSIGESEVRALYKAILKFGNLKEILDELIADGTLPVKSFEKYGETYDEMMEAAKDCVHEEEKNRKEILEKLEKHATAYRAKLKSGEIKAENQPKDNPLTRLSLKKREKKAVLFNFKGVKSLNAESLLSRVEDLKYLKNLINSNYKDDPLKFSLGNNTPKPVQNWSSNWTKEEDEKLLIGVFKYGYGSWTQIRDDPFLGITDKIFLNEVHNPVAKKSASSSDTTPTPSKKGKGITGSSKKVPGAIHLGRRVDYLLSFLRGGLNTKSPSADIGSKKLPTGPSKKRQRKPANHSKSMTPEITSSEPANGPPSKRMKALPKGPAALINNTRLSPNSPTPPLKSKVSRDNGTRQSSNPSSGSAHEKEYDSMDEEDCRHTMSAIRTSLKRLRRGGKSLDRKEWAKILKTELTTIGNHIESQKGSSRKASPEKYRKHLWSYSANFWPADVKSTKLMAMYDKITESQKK
All answers are understood in %, so give the number only.

Examples from the recorded data:
| Compound | Measurement Type | Numeric Readout |
| --- | --- | --- |
| Cn1cnc2c1C(COCC1CCOCC1)CN(C(=O)c1ccoc1)C2 (stereo unspecified) | Percent Effect | -5.31 |
| Cc1ccc(CC(=O)N2Cc3nccn3CC(Cn3cccn3)C2)cc1 (stereo unspecified) | Percent Effect | -6.87 |
| COc1cc(C(=O)Nc2c(C)noc2C)ccc1C | Percent Effect | -5.84 |
| Cc1cccc(CCC(=O)N2CCOCC2c2c(C)n[nH]c2C)c1 (stereo unspecified) | Percent Effect | -2.99 |
| CCc1nc(CC(=O)N2CCN(c3cnccn3)CC2)cs1 | Percent Effect | -26.3 |

We next turn to a different compound, shown below.
Ask: GET /values?readout=Percent Effect&item= `Cc1cc(NC(=O)NCc2cccnc2OC(C)C)n(C)n1`
Result: -22.1

---

target: Proteasome subunit beta (Trypanosoma cruzi) (UniProt O96673); experiment: Trypanosoma cruzi proteasome chymotrypsin-like activity (TcProtChymo) assay.; type: functional; set-up: scale not given: in the data most compounds retested in dose-response had high values; details: 9.37 µM
Sequence (O96673 as listed by the source): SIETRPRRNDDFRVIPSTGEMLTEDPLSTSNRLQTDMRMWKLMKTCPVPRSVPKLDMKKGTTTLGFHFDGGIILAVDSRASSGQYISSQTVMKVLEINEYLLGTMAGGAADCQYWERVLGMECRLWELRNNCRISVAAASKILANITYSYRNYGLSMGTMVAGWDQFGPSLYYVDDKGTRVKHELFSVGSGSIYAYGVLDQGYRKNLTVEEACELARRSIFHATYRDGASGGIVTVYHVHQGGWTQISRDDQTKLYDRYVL
Measurement Type: Percent Effect (%)
Entry rule: numbers only, all in %.

Ask: State the recorded Percent Effect for this entry: CC(C(=O)NCc1ccnc(N2CCCC2)c1)n1cncn1 (stereo unspecified)
Result: 7.18

---

Target: Ubiquitin-activating enzyme e1, putative (Leishmania donovani (strain BPK282A1))
Sequence (whole entry): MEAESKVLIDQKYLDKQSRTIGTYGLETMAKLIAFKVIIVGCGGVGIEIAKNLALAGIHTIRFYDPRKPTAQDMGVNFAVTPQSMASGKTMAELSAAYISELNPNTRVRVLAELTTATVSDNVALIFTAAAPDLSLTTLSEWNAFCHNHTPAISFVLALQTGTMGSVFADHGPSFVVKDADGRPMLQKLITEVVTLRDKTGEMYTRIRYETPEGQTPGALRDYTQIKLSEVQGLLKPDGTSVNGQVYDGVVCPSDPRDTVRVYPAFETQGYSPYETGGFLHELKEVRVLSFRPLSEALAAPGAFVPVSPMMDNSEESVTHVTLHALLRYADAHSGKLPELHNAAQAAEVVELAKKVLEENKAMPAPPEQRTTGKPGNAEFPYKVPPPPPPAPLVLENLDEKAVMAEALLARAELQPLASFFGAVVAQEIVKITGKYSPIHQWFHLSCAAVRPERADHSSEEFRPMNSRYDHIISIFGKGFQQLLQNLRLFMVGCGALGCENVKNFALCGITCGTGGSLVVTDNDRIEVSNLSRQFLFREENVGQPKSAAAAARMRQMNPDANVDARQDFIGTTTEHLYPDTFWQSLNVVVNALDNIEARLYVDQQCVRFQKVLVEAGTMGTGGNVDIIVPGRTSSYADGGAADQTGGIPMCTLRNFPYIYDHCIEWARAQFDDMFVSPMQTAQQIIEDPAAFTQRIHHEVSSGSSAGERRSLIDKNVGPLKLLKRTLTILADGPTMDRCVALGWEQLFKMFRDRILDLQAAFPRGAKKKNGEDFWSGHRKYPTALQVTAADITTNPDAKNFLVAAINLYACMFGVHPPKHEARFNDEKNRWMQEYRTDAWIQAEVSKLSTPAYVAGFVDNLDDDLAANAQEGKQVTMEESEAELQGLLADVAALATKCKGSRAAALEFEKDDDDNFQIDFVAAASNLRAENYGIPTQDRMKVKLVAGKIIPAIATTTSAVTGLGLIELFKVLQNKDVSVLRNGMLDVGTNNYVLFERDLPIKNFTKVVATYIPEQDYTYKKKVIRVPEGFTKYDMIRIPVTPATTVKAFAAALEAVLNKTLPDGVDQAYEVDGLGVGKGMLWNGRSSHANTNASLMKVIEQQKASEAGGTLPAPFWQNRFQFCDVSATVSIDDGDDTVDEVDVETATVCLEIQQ
Assay: Leishmania donovani Ubiquitin Activating Enzyme (LdE1)
Type: functional
Set-up: scale not given: direction of the effect not stated beside the values
Conditions: 30 µM
Measured potencies and affinities stand elsewhere.
Measurement Type: Percent Effect (%)
Reply with just the number (in %).

| Compound | Percent Effect / % |
| --- | --- |
| COC(=O)c1cccn1C1CCN(C(=O)c2cc(C)ccc2O)CC1 | 18.2 |
| Fc1ccccc1-c1noc2c1CN(CC1CC1)CC2 | 13.7 |
| Cc1nc(CNC(=O)NCC(O)c2ccc(F)cc2F)cs1 (stereo unspecified) | 13.3 |
| Cc1cc(CN(C)C(=O)NCc2cccc(N3CCCC3=O)c2)no1 | 7.59 |

Ask: Please look up its Percent Effect: CC(O)CNC(=O)NCc1ccc(N2CCNC(=O)C2)cc1 (stereo unspecified)
Result: 20.8

Ask: Which Percent Effect is listed for `CC1CCN(c2ncc3c(n2)CN(c2ccc4c(c2)OCO4)C3=O)CC1` ?
Result: 7.79

Ask: Quick check: Percent Effect of O=C(NCc1ccccc1-n1cccn1)N1CCN2CCCCC2C1 (stereo unspecified) ?
Result: 0

Ask: For the compound shown here, `CN1CCN(c2cc(CCNC(=O)C3CCC3)nc(C3CC3)n2)CC1` , give the reported Percent Effect.
Result: 12.2

Ask: Requested field: Percent Effect. Item: `O=C1COc2ccc(C(=O)NS(=O)(=O)c3ccc(F)cc3F)cc2N1`
Result: -7.89

Ask: Which Percent Effect is listed for `Cc1cc(N2CCC3(CCC(=O)N(CC4CC4)C3)CC2)nc(N)n1` ?
Result: 5.41

Ask: // Percent Effect lookup, key: `Cc1nc(CNC(=O)NCCc2ccc(N(C)C)cc2)cs1`
Result: 10.8
